// data source = PubChem BioAssay AID1845195

# System: 156681-154-R-J1 tumor spheroid viability
# assay details: Anticancer human tumor 156681-154-R-J1 patient-derived melanoma cell line growth inhibition
# measurement context: second compound 100 µM; first compound 0.3 µM; stronger effect = lower value; spheroids with HUVEC and MSC
value type: viability, T/C (%)
Reply with just the number (in %).

Q. State its viability, T/C for this compound: Cc1sc2c(c1C)C(c1ccc(Cl)cc1)=NC(CC(=O)Nc1ccc(O)cc1)c1nnc(C)n1-2 (centres undefined) + Cn1nnc2c(C(N)=O)ncn2c1=O
A. 13.6

Q. Give recorded viability, T/C. Cn1ncnc1[C@H]1c2n[nH]c(=O)c3cc(F)cc(c23)N[C@@H]1c1ccc(F)cc1 + Cn1nnc2c(C(N)=O)ncn2c1=O
A. 11.3

Q. State its viability, T/C for this compound: O=C(c1cc(Cc2n[nH]c(=O)c3ccccc23)ccc1F)N1CCN(C(=O)C2CC2)CC1 + Cn1nnc2c(C(N)=O)ncn2c1=O
A. 34.4

Q. Provide measured viability, T/C value, entry: CNCc1ccc(-c2cc(-c3nc(-c4ccc(S(=O)(=O)C(C)C)cc4)cnc3N)on2)cc1 + Cn1nnc2c(C(N)=O)ncn2c1=O
A. 34.6

---

# Test system: 156681-154-R-J1 tumor spheroid viability
# assay details: Anticancer human tumor 156681-154-R-J1 cell line growth inhibition;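 further: spheroids exposed to compounds for 7 days before readout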
# measurement context: curve of first compound; second compound 10 µM; spheroids with HUVEC and MSC
Can you tell me IC50 for the items I'm about to list?
I only need the number, in µM, no unit after it.

Q. Under 156681-154-R-J1 tumor spheroid viability, report IC50 for O=C(c1cc(Cc2n[nH]c(=O)c3ccccc23)ccc1F)N1CCN(C(=O)C2CC2)CC1 + Cn1nnc2c(C(N)=O)ncn2c1=O
A. 14.7

Q. Specify IC50 for COc1ccc([C@@H](O)c2cc(-c3ncnc4cc(N5CCOCC5)ccc34)c(F)cc2Cl)nn1 + Cn1nnc2c(C(N)=O)ncn2c1=O , system 156681-154-R-J1 tumor spheroid viability.
A. 7.33

Q. Give IC50 only, for Cn1ncnc1[C@H]1c2n[nH]c(=O)c3cc(F)cc(c23)N[C@@H]1c1ccc(F)cc1 + Cn1nnc2c(C(N)=O)ncn2c1=O , using 156681-154-R-J1 tumor spheroid viability data.
A. 0.27

Q. Tell me IC50 of CC1COCCN1c1cc(-c2ccnn2C)c2ccnc(-c3ccn[nH]3)c2n1 (configuration not stated) + Cn1nnc2c(C(N)=O)ncn2c1=O when tested on 156681-154-R-J1 tumor spheroid viability.
A. 0.0443

---

# System: 156681-154-R-J1 tumor spheroid viability
# assay details: Anticancer human tumor 156681-154-R-J1 cell line growth inhibition;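 further: spheroids exposed to compounds for 7 days before readout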
# measurement context: curve of first compound; second compound 0.00949 µM; spheroids with HUVEC and MSC
pIC50: −log10 of the molar value.
Output MET for pIC50 not less than 6; output NOT MET otherwise.

Q. Determine whether this compound has pIC50 no lower than 6: O=C(c1cc(Cc2n[nH]c(=O)c3ccccc23)ccc1F)N1CCN(C(=O)C2CC2)CC1 + CC[C@@]1(O)C(=O)OCc2c1cc1n(c2=O)Cc2cc3c(CN(C)C)c(O)ccc3nc2-1
A. NOT MET

Q. Is reported pIC50 greater than or equal to 6 here: CC(C)n1c(=O)n(C)c2cnc3cc(F)c(-c4ccc(OCCCN5CCCCC5)nc4)cc3c21 + CC[C@@]1(O)C(=O)OCc2c1cc1n(c2=O)Cc2cc3c(CN(C)C)c(O)ccc3nc2-1
A. NOT MET

Q. In plain terms: is recorded pIC50 at least 6 for Cn1ncnc1[C@H]1c2n[nH]c(=O)c3cc(F)cc(c23)N[C@@H]1c1ccc(F)cc1 + CC[C@@]1(O)C(=O)OCc2c1cc1n(c2=O)Cc2cc3c(CN(C)C)c(O)ccc3nc2-1 ?
A. MET

Q. For this compound, is measured pIC50 6 or higher? COc1cc(C)[nH]c(=O)c1CN1CCc2c(Cl)cc(C(OC)C3COC3)c(Cl)c2C1=O (stereo not given) + CC[C@@]1(O)C(=O)OCc2c1cc1n(c2=O)Cc2cc3c(CN(C)C)c(O)ccc3nc2-1
A. NOT MET

Q. Has COc1ccc([C@@H](O)c2cc(-c3ncnc4cc(N5CCOCC5)ccc34)c(F)cc2Cl)nn1 + CC[C@@]1(O)C(=O)OCc2c1cc1n(c2=O)Cc2cc3c(CN(C)C)c(O)ccc3nc2-1 a recorded pIC50 greater than or equal to 6?
A. NOT MET

Q. Please check the record CNCc1ccc(-c2cc(-c3nc(-c4ccc(S(=O)(=O)C(C)C)cc4)cnc3N)on2)cc1 + CC[C@@]1(O)C(=O)OCc2c1cc1n(c2=O)Cc2cc3c(CN(C)C)c(O)ccc3nc2-1 and state if its pIC50 is at or above 6.
A. MET

Q. State whether the measured pIC50 reaches 6, counting equality as reaching it, for Cc1sc2c(c1C)C(c1ccc(Cl)cc1)=NC(CC(=O)Nc1ccc(O)cc1)c1nnc(C)n1-2 (stereo not given) + CC[C@@]1(O)C(=O)OCc2c1cc1n(c2=O)Cc2cc3c(CN(C)C)c(O)ccc3nc2-1
A. NOT MET

Q. Can Cc1cc(C)c(CNC(=O)c2cc(-c3ccc(CN4CCOCC4)cc3)cc3c2cnn3C2CCCC2)c(=O)[nH]1 + CC[C@@]1(O)C(=O)OCc2c1cc1n(c2=O)Cc2cc3c(CN(C)C)c(O)ccc3nc2-1 be said to have pIC50 at or above 6?
A. NOT MET

Q. API: above_or_equal(metric=pIC50, cutoff=6) for item [2H]c1nc(C)nc([2H])c1-c1cc(NC[C@@H](C)c2cccc3c(C(=O)NC)ccnc23)ncn1 + CC[C@@]1(O)C(=O)OCc2c1cc1n(c2=O)Cc2cc3c(CN(C)C)c(O)ccc3nc2-1
A. NOT MET

Q. Is the recorded value of pIC50 equal to or greater than 6 for this compound? CC1COCCN1c1cc(-c2ccnn2C)c2ccnc(-c3ccn[nH]3)c2n1 (stereo not given) + CC[C@@]1(O)C(=O)OCc2c1cc1n(c2=O)Cc2cc3c(CN(C)C)c(O)ccc3nc2-1
A. MET

---

# Tested on: 156681-154-R-J1 tumor spheroid viability
# assay details: Anticancer human tumor 156681-154-R-J1 cell line growth inhibition;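 further: spheroids exposed to compounds for 7 days before readout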;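 on viability, T/C: percent of vehicle control viability where 100% = DMSO-treated spheroids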
# measurement context: second compound 0.0949 µM; first compound 0.0949 µM; stronger effect = lower value; spheroids with HUVEC and MSC
Please respond with reported viability, T/C for every item in the list.
Provide the reading as a plain figure in %.

Q. Kindly indicate its recorded viability, T/C. Item: Cc1sc2c(c1C)C(c1ccc(Cl)cc1)=NC(CC(=O)Nc1ccc(O)cc1)c1nnc(C)n1-2 (centres undefined) + CC[C@@]1(O)C(=O)OCc2c1cc1n(c2=O)Cc2cc3c(CN(C)C)c(O)ccc3nc2-1
A. 21

Q. Return value of viability, T/C for input O=C(c1cc(Cc2n[nH]c(=O)c3ccccc23)ccc1F)N1CCN(C(=O)C2CC2)CC1 + CC[C@@]1(O)C(=O)OCc2c1cc1n(c2=O)Cc2cc3c(CN(C)C)c(O)ccc3nc2-1 , no commentary.
A. 33.5

Q. Given the molecule Cn1ncnc1[C@H]1c2n[nH]c(=O)c3cc(F)cc(c23)N[C@@H]1c1ccc(F)cc1 + CC[C@@]1(O)C(=O)OCc2c1cc1n(c2=O)Cc2cc3c(CN(C)C)c(O)ccc3nc2-1 , write its reported viability, T/C.
A. 32.7

Q. Give me measured viability, T/C, please, for this molecule: CNCc1ccc(-c2cc(-c3nc(-c4ccc(S(=O)(=O)C(C)C)cc4)cnc3N)on2)cc1 + CC[C@@]1(O)C(=O)OCc2c1cc1n(c2=O)Cc2cc3c(CN(C)C)c(O)ccc3nc2-1
A. 24.2

---

Answer each item with its documented viability, T/C.
# Test system: 156681-154-R-J1 tumor spheroid viability
# assay details: Anticancer human tumor 156681-154-R-J1 cell line growth inhibition;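 further: spheroids exposed to compounds for 7 days before readout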;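 on viability, T/C: percent of vehicle control viability where 100% = DMSO-treated spheroids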
# measurement context: second compound 3.16 µM; first compound 3.16 µM; stronger effect = lower value; spheroids with HUVEC and MSC
Give the quantity in %, number only.

Q. Fill in: viability, T/C on 156681-154-R-J1 tumor spheroid viability, entry CC1COCCN1c1cc(-c2ccnn2C)c2ccnc(-c3ccn[nH]3)c2n1 (stereo unspecified) + Cn1nnc2c(C(N)=O)ncn2c1=O
A. 20.2

Q. GET viability, T/C where system = 156681-154-R-J1 tumor spheroid viability and item = Cc1cc(C)c(CNC(=O)c2cc(-c3ccc(CN4CCOCC4)cc3)cc3c2cnn3C2CCCC2)c(=O)[nH]1 + Cn1nnc2c(C(N)=O)ncn2c1=O
A. 68.8

Q. Specify viability, T/C for CC(C)n1c(=O)n(C)c2cnc3cc(F)c(-c4ccc(OCCCN5CCCCC5)nc4)cc3c21 + Cn1nnc2c(C(N)=O)ncn2c1=O , system 156681-154-R-J1 tumor spheroid viability.
A. 98.9

Q. Answer with viability, T/C of [2H]c1nc(C)nc([2H])c1-c1cc(NC[C@@H](C)c2cccc3c(C(=O)NC)ccnc23)ncn1 + Cn1nnc2c(C(N)=O)ncn2c1=O measured for 156681-154-R-J1 tumor spheroid viability.
A. 120

Q. Specify the recorded viability, T/C for COc1ccc([C@@H](O)c2cc(-c3ncnc4cc(N5CCOCC5)ccc34)c(F)cc2Cl)nn1 + Cn1nnc2c(C(N)=O)ncn2c1=O , system: 156681-154-R-J1 tumor spheroid viability.
A. 62

Q. Give the observed viability, T/C of COc1cc(C)[nH]c(=O)c1CN1CCc2c(Cl)cc(C(OC)C3COC3)c(Cl)c2C1=O (stereo unspecified) + Cn1nnc2c(C(N)=O)ncn2c1=O for 156681-154-R-J1 tumor spheroid viability.
A. 127
